Reference for the values: PubChem BioAssay (NCI)

TEST_METHOD_NOTES: NCI Yeast Anticancer Drug Screen. Data for the sgs1 mgt1 strain (AID 161);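 also: 0% = growth of cultures given vehicle only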
CONDITION: S. cerevisiae sgs1 mgt1 strain, at 5.0 µM (retest, dose inferred, filed as 0.5), stronger effect = higher value
The panel holds about 79,000 compounds, 15% with a hit somewhere; the sample as a whole holds those more often.
Would you mind telling me the reported growth inhibition of each entry?
One number for each entry, in %.

# count of solved cases: 2
{"columns": ["COMPOUND", "READOUT_UNITS", "growth inhibition"],
 "data": [
  ["COc1cc(OC)c(C/C=C/c2ccccc2)cc1O", "%", 20],
  ["Cc1ccccc1N1C(=O)C(=O)c2cccc(C)c21", "%", 1]
]}

Hi, could you look up growth inhibition for each item in my list?
1. C=C(C)COc1cc(NC(=S)OC(C)C)ccc1Cl
2. CCOC(=O)C1SC(=Nc2cccc(Cl)c2C)N=C1C (configuration not stated)
3. CCc1scc(C)[n+]1CC(=O)c1cccc([N+](=O)[O-])c1
4. C1CCC2CC3(CCNCC3)CCC2C1 (configuration not stated)
5. CC(NNC(=S)N1CCCCCC1)c1cccnn1 (configuration not stated)

Output:
[8, 23, 11, 16, 97]

====

TEST_METHOD_NOTES: NCI Yeast Anticancer Drug Screen. Data for the cln2 rad14 strain (AID 165);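 also: 0% = growth equal to vehicle treated cultures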
CONDITION: S. cerevisiae cln2 rad14 strain, at 50.0 µM, stronger effect = higher value
Compounds without any hit were thinned out: in the full panel of roughly 79,000, 15% have a hit. Where a SMILES comes first, the peptide text is derived from it. [ ]: non-standard residue; d: D form. The star is where a group is joined. Phe(4-NO2) = N[CH](Cc1ccc([N+](=O)[O-])cc1)C(=O)O; Boc = CC(C)(C)OC(=O)*
Decision: growth inhibition >= 60% yields fulfilled, all other cases yield not fulfilled.

Consider the worked cases shown below.
{"columns": ["COMPOUND", "GROUP_LABEL"],
 "data": [
  ["CCCC(=O)Oc1ccc(-c2ccc(Br)cc2)cc1", "fulfilled"],
  ["COc1cccc(OC)c1C(=O)/C=C/c1ccccc1", "not fulfilled"],
  ["C=CC(=O)N1C/C(=C\\c2ccc(F)cc2)C(=O)/C(=C/c2ccc(F)cc2)C1", "fulfilled"],
  ["C/C(=N\\NC(=S)N1CCN(C2CCCCCC2)CC1)c1ccccn1", "not fulfilled"],
  ["CNC(=O)CCC(NC(=O)OC(C)(C)C)C(=O)NC(Cc1ccc([N+](=O)[O-])cc1)C(=O)NCC(=O)NC (stereo not given) (Boc-Glu(NHMe)-[Phe(4-NO2)]-Gly-NHMe; configuration not given here)", "not fulfilled"],
  ["O=C(c1ccccc1)c1ccc2c(c1Cl)C(=O)c1ccccc1C2=O", "not fulfilled"],
  ["CC(=O)OC[C@@]1(C)[C@@H]2CC[C@]3(C)[C@H](C(=O)C=C4[C@@H]5CC(C)(C)CC[C@]5(C(=O)O)CC[C@]43C)[C@@]2(C)CC[C@@H]1OC(C)=O", "fulfilled"],
  ["CN1C=COC1N=C1CCCCC1 (stereo not given)", "not fulfilled"]
]}

Task: Hello, I need to know if COc1ccc(Br)c2c1CC(C(=O)O)CC2 (stereo not given) has measured growth inhibition not below 60%. Thanks!
Output: not fulfilled

Task: # check: growth inhibition of `Cc1cc(=O)c2c(ccc3cc4ccccc4cc32)[nH]1` is greater than or equal to 60%
Output: not fulfilled

====

TEST_METHOD_NOTES: NCI Yeast Anticancer Drug Screen. Data for the bub3 strain (AID 167)
CONDITION: S. cerevisiae bub3 mutant strain, at 50.0 µM (retest, dose inferred, filed as 5.0), stronger effect = higher value
Compounds without any hit were thinned out: in the full panel of roughly 79,000, 15% have a hit.
So basically, the class depends on measured growth inhibition, and the ranges are bucket 1: < 20%; bucket 2: ≥ 20% and < 90%; bucket 3: ≥ 90%

Use the examples below as a reference point.
{"columns": ["MOLECULE", "GROUP_LABEL"],
 "data": [
  ["CCCCN1CSC(=S)N(Cc2ccccc2)C1", "bucket 2"],
  ["COC(=O)Nc1nc2ccc(CCC(=O)c3c(C)oc(C)c3-c3ccc(NC(C)=O)cc3)cc2[nH]1", "bucket 2"],
  ["O=C1c2ccccc2C(=O)c2cc(S(=O)(=O)Cl)ccc21", "bucket 3"]
]}

Task: Band for `CS(=O)(=O)OCCN(CCOS(C)(=O)=O)c1ccc(C=Nc2ccc3ccccc3c2)cc1` ?
Output: bucket 1

Task: Lab note: which band did CN1C(=O)C(Cl)(C(Cl)(Cl)S(=O)(=O)O)C(=O)c2ccccc21 (configuration not stated) land in?
Output: bucket 3

Task: For the record `NC(N)=NS(=O)(=O)c1ccc(N=Cc2c3ccccc3nc3cc(Cl)ccc23)cc1` , report the class its growth inhibition corresponds to.
Output: bucket 1

====

TEST_METHOD_NOTES: NCI Yeast Anticancer Drug Screen. Data for the mec2-1 strain (AID 157)
CONDITION: S. cerevisiae mec2-1 strain, at 50.0 µM, stronger effect = higher value
This is part of a sample that, as a whole, favours compounds with a hit. Of some 79,000 tested, about 15% had one in any assay. The source made the active and inactive calls. No stated cut-off is given here; in the data, active means growth inhibition above about 70%; inactive means the rest.
TEST_READOUT: growth inhibition

Take a look at these entries with their results.
{"columns": ["COMPOUND", "growth inhibition"],
 "data": [
  ["CCC1(C)OC(=O)C(c2ccccc2)O1 (centres undefined)", "-1.85% (inactive)"],
  ["O=C(/N=C1\\N=Nc2nc(C(C(=O)c3cccs3)c3nc4n(c3O)/C(=N/C(=O)Nc3ccc(Cl)cc3)N=N4)c(O)n21)Nc1ccc(Cl)cc1 (centres undefined)", "63.4% (inactive)"],
  ["N#COc1ccc(Oc2ccc(OC#N)cc2)cc1", "-22.8% (inactive)"],
  ["O/N=C1/C(=C/c2ccc(Cl)c(Cl)c2)CCCC1C(NO)c1ccc(Cl)c(Cl)c1 (centres undefined)", "1.9% (inactive)"],
  ["S=c1[nH]nc(SCc2ccc(Cl)c(Cl)c2)c2[nH]cnc12", "9.2% (inactive)"]
]}

Need growth inhibition for each of these compounds.
1. C/C(=N\NC(=S)NC12CC3CC(CC(C3)C1)C2)c1ccccn1
2. NNc1nc(Nc2ccccc2)nc(Nc2ccccc2)n1
3. Cc1ccc(C)c(N2C(=O)C(=O)c3c(C)ccc(C)c32)c1
4. O=[N+]([O-])C1C2C=CC(C2)[C@H]1c1ccc(Cl)cc1Cl (some centres undefined)
5. CCc1cccc(CC)c1NC(=O)C(C#N)C1=C(Cl)C(=O)c2ccccc2C1=O (centres undefined)

Output:
["97.9% (active)", "42% (inactive)", "99% (active)", "93.2% (active)", "93.5% (active)"]

Go through the list and state growth inhibition for each entry.
1. CC1SC2(C(=O)Nc3ccc([N+](=O)[O-])cc32)N(c2ccc(Cl)cc2)C1=O (centres undefined)
2. CC(=O)O[C@H]1CC[C@@]2(C)C(CC[C@]3(C)C2CC=C2[C@@H]4CC(C)(C)CC[C@]4(C(=O)NCCN(C)C)CCC23C)C1(C)C (some centres undefined)
3. Nc1nnc(CCC(=O)Nc2ccccc2Cl)o1
4. C/C=C(\C)C(=O)OC1C2C(C)=CC(=O)C(O)C2(C)C2C3(O)OCC24C1OC(=O)C(O)C4C(C)C3O (centres undefined)
5. COc1ccc2c(c1)C(=O)/C(=C/c1ccc([N+](=O)[O-])o1)CO2
6. NC(=S)C(=S)N/C=C/c1nc2ccccc2[nH]c1=O

Output:
1: 95.7% (active); 2: 95.4% (active); 3: 79.5% (active); 4: 72.5% (active); 5: 38.2% (inactive); 6: 92.7% (active)

Quick batch: growth inhibition for everything below.
1. Clc1ccc(OCC2CO2)c(Cl)c1 (centres undefined)
2. CC1CCN(CCOC(=O)C(c2ccccc2)C2C=CCCC2)C1C (centres undefined)
3. O=C(CN1CCCCC1)CC(O)(C(F)(F)F)C(F)(F)F
4. CCOc1ccc2c(c1)[n+]([O-])c(S(=O)(=O)c1ccc(C)cc1)c(N)[n+]2[O-]
5. CCCCNCc1c(O)ccc2ccccc12
6. S=C(NCCc1ccccc1)N/N=C/c1ccc(Cl)cc1
7. Cc1ccc(C(=O)C(CCC#N)(CCC#N)CCC#N)cc1

Output:
1. 91.5% (active)
2. 58.9% (inactive)
3. 8.45% (inactive)
4. 48.3% (inactive)
5. 99.2% (active)
6. 74.3% (active)
7. -0.25% (inactive)

====

TEST_METHOD_NOTES: NCI Yeast Anticancer Drug Screen. Data for the mec2-1 strain (AID 157)
CONDITION: S. cerevisiae mec2-1 strain, at 50.0 µM (retest, dose inferred, filed as 5.0)
Description: Growth inhibition of yeast strains with defined genetic alterations is measured as a screen for potential anti-cancer activity. Selected strains with alterations in DNA damage repair or cell cycle control were exposed to compounds and growth inhibition was measured relative to vehicle treated controls. The strain used in this assay is mec2-1
This is part of a sample that, as a whole, favours compounds with a hit. Of some 79,000 tested, about 15% had one in any assay. Activity calls are given as the source filed them. Cut-off read from the data, not from the text of the source: active = growth inhibition above about 70%; inactive = the rest.
Could you please pick one outcome from this set? TRUE (active), FALSE (inactive)

{"columns": ["MOLECULE", "GROUP_LABEL"],
 "data": [
  ["Cc1cccc(NC(=O)c2cc3cc(N=Nc4ccccc4Cl)ccc3oc2=O)c1", "FALSE"],
  ["CCc1n[nH]c(CC)c1CCCCCCOc1ccc(OC)cc1Cl", "TRUE"],
  ["CN(C)CC/C(=N\\Nc1ccc(Cl)cc1Cl)c1ccccc1", "TRUE"],
  ["Oc1c(Br)ccc2c(O)c(Br)ccc12", "TRUE"],
  ["COc1ccc(Oc2ccc(C(=O)C(CN(C)C)CN(C)C)cc2)cc1", "TRUE"],
  ["CCCCCCCCCCCCCCCC[n+]1ccc(/C=C/c2ccccc2)cc1", "TRUE"],
  ["CN(C)CC1CCCCCCCCCCCCC(CN(C)C)C1=O (configuration not stated)", "FALSE"],
  ["C/C(=N/NC(N)=S)C(C)C", "FALSE"]
]}

Task: Which outcome was entered for the molecule `CCCC#CCCOC(=O)c1cc([N+](=O)[O-])cc([N+](=O)[O-])c1` in this test?
Output: TRUE
